Recorded values, source patent US11667602B2.

# assay_remarks: Human Hepatocyte Stability (Test D)
# Format: in vitro ADME
# study_conditions: human, cryopreserved pooled human hepatocytes (LiverPool 10-Donor), geometric mean if run multiple times
outcome_measure: hepatocyte CLint at 1 µM (µL/min/1e6 cells)

Take a look at these entries with their results.
molecule	quantitative_result
COc1cc(F)c(O[C@H]2CC[C@@H](C(N)=O)CC2)cc1C(=O)N[C@@H]1[C@H]2CC[C@H](C2)[C@@H]1C(=O)Nc1ccc(F)c(C(F)(F)F)c1 [Example 500]	45
COc1cc(F)c(O[C@H]2CC[C@@H](C(=O)O)CC2)cc1C(=O)N[C@@H]1[C@@H]2CC[C@@H](C2)[C@@H]1C(=O)Nc1cccc(S(F)(F)(F)(F)F)c1 [Example 509]	5
CC1(CNC(=O)[C@H]2[C@@H]3CC[C@@H](C3)[C@H]2NC(=O)c2cc(O[C@H]3CC[C@@](C)(C(=O)O)CC3)c(F)cc2F)CCC1 [Example 393]	6.7

I: COc1cc(C#N)c(O[C@H]2CC[C@@](C)(C(=O)O)CC2)cc1C(=O)N[C@@H]1[C@@H]2CC[C@@H](C2)[C@@H]1C(=O)NCC(C)(C)C [Example 389]
II: CCC(C)CNC(=O)C1C2CCC(C2)C1NC(=O)c1cc(OC2CCC(C(=O)O)CC2)c(F)cc1OC (single isomer, unassigned) [Example 202]
III: COc1cc(F)c(OCCCCCCC(=O)O)cc1C(=O)N[C@@H]1[C@H]2CC[C@H](C2)[C@@H]1C(=O)Nc1cccc(S(=O)(=O)C(F)(F)F)c1 [Example 436]
IV: COc1cc(C#N)c(O[C@H]2CC[C@@](C)(C(=O)O)CC2)cc1C(=O)N[C@@H]1[C@H]2CC[C@H](C2)[C@@H]1C(=O)NCC(F)(F)C(F)(F)F [Example 102]
Please list these in order of increasing hepatocyte CLint at 1 µM. Thank you! // format: requested-order list of labels
IV, II, I, III
(IV: 1.9 µL/min/1e6 cells, II: 5.6 µL/min/1e6 cells, I: 8 µL/min/1e6 cells, III: 97 µL/min/1e6 cells)

P: COc1cc(F)c(O[C@H]2CC[C@@](CO)(C(=O)O)CC2)cc1C(=O)N[C@@H]1[C@H]2CC[C@H](C2)[C@@H]1C(=O)NCC1(C)CCC1 [Example 364]
Q: COc1cc(F)c(-c2ccc(C(N)=O)cc2)cc1C(=O)N[C@H]1[C@@H](C(=O)Nc2cccc(S(=O)(=O)C(F)(F)F)c2)[C@@H]2C=C[C@H]1C2 [Example 270]
Of the two listed items, which has the higher hepatocyte CLint at 1 µM? First: P Second: Q # answer = label of selected item
Q

* * *

# assay_remarks: Solubility (Test F)
# Format: physicochemical
# study_conditions: arithmetic mean if run multiple times
outcome_measure: solubility (µM)

compound	unit_abbreviation	solubility
CC1(CNC(=O)[C@H]2[C@@H]3CC[C@@H](C3)[C@H]2NC(=O)c2cc(O[C@H]3CC[C@@](C)(C(=O)O)CC3)c(C#N)cc2F)CCC1 [Example 401]	µM	1000

A: COc1cc(F)c(O[C@H]2CC[C@@](C)(C(=O)O)CC2)cc1C(=O)N[C@@H]1[C@H]2CC[C@H](C2)[C@@H]1C(=O)N[C@@H]1CCCN(S(=O)(=O)C(F)(F)F)C1 [Example 604]
B: COc1cc(F)c(-c2ccc(C(=O)O)cc2)cc1C(=O)N[C@H]1[C@@H](C(=O)Nc2cccc(S(=O)(=O)C(F)(F)F)c2)[C@@H]2C=C[C@H]1C2 (racemic) [Example 224]
C: COc1cc(C#N)c(O[C@H]2CC[C@@](C)(C(=O)O)CC2)cc1C(=O)N[C@@H]1[C@H]2CC[C@H](C2)[C@@H]1C(=O)NCC1(CC(C)C)CCC1 [Example 106]
Falling order of solubility, please. Order the labels as requested and list them.
B, C, A
(B: 870 µM, C: 170 µM, A: 10 µM)
